The reported numbers originate from PubChem BioAssay (NCI).

- Test system: UO-31 renal
- PROTOCOL_TEXT: NCI tumour cell line growth inhibition, 48 h
Overview of recorded TGI for various compounds

Solved entries:
COMPOUND	VALUE_MEASURED
CC(C)CCC[C@@H](C)C1CCC2[C@@H]3CC=C4C[C@@H](OC(=O)CCC(=O)NCC[N+](C)(C)CCCS(=O)(=O)[O-])CC[C@]4(C)C3CC[C@@]21C (some centres undefined)	> 100 µM
CCOC(=O)Cn1c(=O)c2cc(C)cc3c(Cl)nc4c(OC)c(OC)cc1c4c32	> 100 µM

Data request, read-out TGI, for COC(=O)C1=C(O)C(C(=O)OC)[C@@]2(O)[C@@H](C(=O)OC)C(c3ccccc3C(F)(F)F)C[C@@H]1[C@@H]2C(=O)OC (some centres undefined) 26.5 µM

Data request, read-out TGI, for COC(=O)C(=O)C(C(=O)C(=O)Nc1ccc(Cl)cc1Cl)c1nc2ccc(Cl)cc2[nH]c1=O (centres undefined) > 100 µM

* * *

- Tested on: RXF 393 renal
- PROTOCOL_TEXT: NCI tumour cell line growth inhibition, 48 h
ASSAY_ENDPOINT: log10(TGI) (log10 of the value in µM)
All values: base-10 log of TGI in µM.

MOLECULE	log10(TGI)
Brc1ccc2c(c1)[C@H]1CCc3c([nH]c4ccccc34)[C@H]1N2	1.52

Data request, read-out log10(TGI), for `Cc1cc(C)c(-c2noc(-c3ccc(Cl)cc3)c2C2=NCCN2)c(C)c1` 1.65

Data request, read-out log10(TGI), for `O=C(N/C(=C\c1cc(Cl)ccc1Cl)c1nc2ccccc2[nH]1)c1ccccc1` 1.81

Data request, read-out log10(TGI), for CC([C@H]1CCC2C3CCC4C(=O)C(NC=O)=CC[C@]4(C)C3CC[C@@]21C)N(C)C (some centres not stated) 1.22

Data request, read-out log10(TGI), for `O=C(CCCCCn1c2ccccc2c2c3c(c4c5ccccc5[nH]c4c21)C(=O)N(O)C3=O)N1CCOCC1` 0.53

Data request, read-out log10(TGI), for `C=CCn1c(-c2ccc(N=NNc3ccc(-c4n[nH]c(=S)n4CC=C)cc3)cc2)n[nH]c1=S` 1.58

* * *

- Test system: COLO 205 colon
- PROTOCOL_TEXT: NCI tumour cell line growth inhibition, 48 h
Overview of recorded TGI for various compounds

COMPOUND	VALUE_MEASURED
COC1=C(NC(C)=O)C(=O)c2nc3n(c2C1=O)CCC3	38.6 µM
Cc1cc([C@H](C#N)c2nc3ccccc3s2)nc(Cl)n1	6.49 µM
OCCOCn1nc(-c2ccccc2)nc1-c1cnccn1	> 100 µM
COc1cc(CNc2nc3cc(C(F)(F)F)ccc3nc2C(=O)O)cc(OC)c1OC	53.7 µM
CN1CCN(c2nc(NCCNc3ccnc4cc(Cl)ccc34)c3ccccc3n2)CC1	2.33 µM
N.N.NCCCCN.O=C([O-])CCl.O=C([O-])CCl.O=C([O-])CCl.O=C([O-])CCl.[Pt+4].[Pt+4]	> 50 µM
O=C(OCc1ccccc1[N+](=O)[O-])N1c2ccccc2[C@@]23O[C@]24CCC[C@H]3C#C/C=C\C#C[C@H]14	> 100 µM
O=C1C=Cc2cc3ccccc3c3cccc1c23	> 100 µM
CC1CN=C(c2ccc3c(c2)Cc2cc(C4=NCC(C)N4)ccc2-3)N1 (stereo unspecified)	> 100 µM
COc1ccccc1NC(=O)CC(=O)NNCC(=O)Nc1nc(-c2ccccc2)cs1	> 100 µM

Data request, read-out TGI, for `O=C1CCc2cc([N+](=O)[O-])ccc2O1` > 100 µM

Data request, read-out TGI, for `COc1cc(C=C2C(=O)OC(C)(C)OC2=O)cc(OC)c1OC` > 100 µM

Data request, read-out TGI, for `c1ccc2c3c(c(N4CCNCC4)nc2c1)CCCC3` 18.9 µM

Data request, read-out TGI, for `CC(=N\O)/C(C)=N/O.CC(=N\O)/C(C)=N/O.[Pd]` > 10 µM

* * *

Overview of recorded log10 of TGI for various compounds
- Tested on: KM12 colon
- PROTOCOL_TEXT: NCI tumour cell line growth inhibition, 48 h
All values: base-10 log of TGI in µM.

Data request, read-out log10 of TGI, for `Nc1c2c(nc3ccccc13)-c1ccccc1CCC2` 1.52

Data request, read-out log10 of TGI, for `COc1cc2c(cc1OC)[C@@H]1[C@H](C2=O)c2ccc([N+](=O)[O-])cc2C(=O)N1CCCBr` 0.66

Data request, read-out log10 of TGI, for `CN1CCN(c2nc(NCCNc3ccnc4cc(Cl)ccc34)c3ccccc3n2)CC1` 1.08

Data request, read-out log10 of TGI, for `CCCCCCCC(=O)SCC/C=C/[C@@H]1CC(=O)NCc2cccc(n2)CN(Cc2ccc(Cl)cc2)CC(=O)N[C@@H](C(C)C)C(=O)O1` 1.81

Data request, read-out log10 of TGI, for `O=C1C=Cc2cc3ccccc3c3cccc1c23` 1.55

Data request, read-out log10 of TGI, for `Cc1cc(CC(O)(C(F)(F)F)C(F)(F)F)cc(CC(O)(C(F)(F)F)C(F)(F)F)n1` 0.71

* * *

- System: M14 melanoma
- PROTOCOL_TEXT: NCI tumour cell line growth inhibition, 48 h
Where a SMILES comes first, the peptide text is derived from it. [ ]: non-standard residue; d: D form. The star is where a group is joined. ξ: configuration not given here. 4Abz = Nc1ccc(C(=O)O)cc1; ξL = CC(C)CC(N)C(=O)O; NHOH = ON*
ASSAY_ENDPOINT: GI50

COMPOUND	GI50
Cc1c(Br)cccc1NC(=O)c1sc2nc3c(cc2c1N)CN(Cc1ccccc1)CC3	0.107 µM

Data request, read-out GI50, for `NS(=O)(=O)OC[C@H]1O[C@@H](n2cnc3c(N[C@H]4CCc5ccccc54)ncnc32)[C@H](O)[C@@H]1O` 0.226 µM

Data request, read-out GI50, for COC(=O)C1=C(O)C(C(=O)OC)[C@@]2(O)[C@@H](C(=O)OC)C(c3ccccc3C(F)(F)F)C[C@@H]1[C@@H]2C(=O)OC (stereo partly drawn) 13.9 µM

Data request, read-out GI50, for COc1ccc(C2CC(c3cccc(Nc4ccnc5cc(Cl)ccc45)c3)=NN2c2ccccc2)cc1 (stereo not drawn) 0.331 µM

Data request, read-out GI50, for `Cc1cc(C)c2nc(Nc3nc(C)c(C)c(=O)[nH]3)nc(C)c2c1` 2.58 µM

Data request, read-out GI50, for `COc1cc2c(cc1OC)[C@@H]1[C@H](C2=O)c2ccc([N+](=O)[O-])cc2C(=O)N1CCCBr` < 0.01 µM

Data request, read-out GI50, for COc1cc(C2C3=C(COC3=O)N(CCO)c3cc4c(cc32)OCCO4)cc(OC)c1O (stereo not drawn) 1.43 µM

Data request, read-out GI50, for `COc1ccc(/C(C#N)=C/c2nc3c(N4CCOCC4)nc(Cl)nc3n2C)cc1OC` < 0.01 µM

Data request, read-out GI50, for COC(=O)C1=C(O)C(C(=O)OC)[C@@]2(O)[C@@H](C(=O)OC)C(c3ccc(OC(=O)C(Cc4ccccc4)NC(C)=O)cc3)C[C@@H]1[C@@H]2C(=O)OC (stereo partly drawn) 20.7 µM

Data request, read-out GI50, for `O=c1cc(N2CCOCC2)oc2c(-c3ccccc3)cccc12` 5.38 µM

Data request, read-out GI50, for `CCSc1sc(-c2ccc(C)cc2)nc1[P+](c1ccccc1)(c1ccccc1)c1ccccc1` 0.342 µM

Data request, read-out GI50, for `COc1ccc(-c2ccc(/C=N/n3cnn(CN4CCN(C)CC4)c3=S)o2)c([N+](=O)[O-])c1` 14.2 µM

Data request, read-out GI50, for CC(C)CC(NC(=O)[C@@H]1CCCN1C(=O)CNC(=O)c1ccc(N)cc1)C(=O)N[C@H](C)C(=O)NO (stereo partly drawn) (H-[4Abz]GP[ξL][dA]-{NHOH}) > 100 µM

* * *

- System: A498 renal
- PROTOCOL_TEXT: NCI tumour cell line growth inhibition, 48 h; in the data active = GI50 below about 0.43 µM; inactive = the rest
Result category, one only: y = active, n = inactive

Write down the call the test reported for this molecule. Item: `CC(=O)c1c[nH]c2ccc(-c3ccnc(Nc4ccc(NC(=O)c5cccc(F)c5)c(CN5CCOCC5)c4)n3)cc12` y

Write down the call the test reported for this molecule. Item: `O=C(CCCCCn1c2ccccc2c2c3c(c4c5ccccc5[nH]c4c21)C(=O)N(O)C3=O)N1CCOCC1` n

* * *

- System: A549 NSCLC
- PROTOCOL_TEXT: NCI tumour cell line growth inhibition, 48 h
Overview of recorded TGI for various compounds

Solved entries:
COMPOUND	TGI
O=C(/C=C(\O)C(=O)O)/C=C(\O)c1ccc(Cl)cc1	> 100 µM
CS(=O)(=O)c1ccc(C2=C(c3ccccc3)C(=O)OC2)cc1	> 100 µM
COc1ccc(/C=C/C=C2C(=O)NC(=S)NC2=O)cc1	46.2 µM
O=C(NCCc1ccccc1)C(c1csc2ccccc12)N(C(=O)CCl)c1ccc(-c2cnco2)cc1 (stereo unspecified)	1.64 µM
CC1CCC(O)/C=C/C(=O)OC(C)C(O)/C=C/C(=O)O1 (stereo unspecified)	> 100 µM

Data request, read-out TGI, for O=C1OS2(OC(=O)c3cccc4cccc2c34)c2ccccc21 (stereo unspecified) > 100 µM
